System: platelet aggregation (rabbit platelets, ADP-induced)
experiment: ADP-induced platelet aggregation in vitro (turbidimetric method, rabbit platelet-rich plasma)
Type: cell-based
test conditions: 200 γ/ml; 180 seconds after ADP (2.2 × 10^-4); tartrate salt
Response key: true means Percent inhibition of platelets aggregation >= 60%; false means Percent inhibition of platelets aggregation < 60%.

# check: Percent inhibition of platelets aggregation of CO[C@]12C[C@@H](CSc3nccnc3Cl)CN(C)[C@@H]1Cc1cn(C)c3cccc2c13 is greater than or equal to 60%
true

# check: Percent inhibition of platelets aggregation of CO[C@]12C[C@@H](CNc3nccnc3Cl)CN(C)[C@@H]1Cc1cn(C)c3cccc2c13 is greater than or equal to 60%
true

hey, is Percent inhibition of platelets aggregation for this one >= 60%? CO[C@]12C[C@@H](CSc3cnccn3)CN(C)[C@@H]1Cc1cn(C)c3cccc2c13
false

In plain terms: is recorded Percent inhibition of platelets aggregation at least 60% for CO[C@]12C[C@@H](CNc3cncc(Cl)n3)CN(C)[C@@H]1Cc1cn(C)c3cccc2c13 ?
true

Is it the case that CO[C@]12C[C@@H](CNc3cnccn3)CN(C)[C@@H]1Cc1cn(C)c3cccc2c13 has Percent inhibition of platelets aggregation reaching or exceeding 60%?
false

* * *

I'd appreciate it if you could supply Percent inhibition of platelets aggregation values for the items below.
Test system: platelet aggregation (rabbit platelets, ADP-induced)
experiment: ADP-induced platelet aggregation in vitro (turbidimetric method, rabbit platelet-rich plasma)
Format: cell-based
test conditions: 100 γ/ml; 90 seconds after ADP (2.2 × 10^-4); tartrate salt
Output spec: scalar in %, unitless text.

Observed Percent inhibition of platelets aggregation on platelet aggregation (rabbit platelets, ADP-induced) for CO[C@]12C[C@@H](CNc3cnccn3)CN(C)[C@@H]1Cc1cn(C)c3cccc2c13 , please.
10

For platelet aggregation (rabbit platelets, ADP-induced), provide Percent inhibition of platelets aggregation of CO[C@]12C[C@@H](CSc3nccnc3Cl)CN(C)[C@@H]1Cc1cn(C)c3cccc2c13 please.
75

Give Percent inhibition of platelets aggregation (platelet aggregation (rabbit platelets, ADP-induced)) of the following compound: CO[C@]12C[C@@H](CNc3cncc(Cl)n3)CN(C)[C@@H]1Cc1cn(C)c3cccc2c13
80

Give the reported Percent inhibition of platelets aggregation for COc1nccnc1NC[C@H]1CN(C)[C@@H]2Cc3cn(C)c4cccc(c34)[C@@]2(OC)C1 (system: platelet aggregation (rabbit platelets, ADP-induced)).
30

Find the measured Percent inhibition of platelets aggregation: item CO[C@]12C[C@@H](CNc3nccnc3Cl)CN(C)[C@@H]1Cc1cn(C)c3cccc2c13 , target or system platelet aggregation (rabbit platelets, ADP-induced).
67

Cited source for all entries: patent US4123613A
